target: Env of the clade G HIV-1 pseudoviruses of the cross-clade 162-pseudovirus panel (n = 15); experiment: cell-based or functional assay
READOUT TYPE: Median IC50 against viruses neutralized with an IC50 <50 µg/ml (mg/L)
Number in mg/L, nothing else.

PGT-125 (antibody, V domains shown) VH: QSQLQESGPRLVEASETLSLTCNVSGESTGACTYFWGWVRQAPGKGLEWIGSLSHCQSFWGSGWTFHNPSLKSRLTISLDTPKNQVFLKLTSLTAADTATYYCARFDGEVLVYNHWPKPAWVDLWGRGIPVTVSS VL: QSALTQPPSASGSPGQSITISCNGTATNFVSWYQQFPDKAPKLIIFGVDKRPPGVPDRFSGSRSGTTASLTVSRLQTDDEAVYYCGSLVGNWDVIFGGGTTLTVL    0.02
PGT-123 (antibody, V domains shown) VH: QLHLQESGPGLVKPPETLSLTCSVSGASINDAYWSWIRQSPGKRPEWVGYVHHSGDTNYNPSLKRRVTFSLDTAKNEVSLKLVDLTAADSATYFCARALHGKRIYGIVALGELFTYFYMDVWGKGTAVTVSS VL: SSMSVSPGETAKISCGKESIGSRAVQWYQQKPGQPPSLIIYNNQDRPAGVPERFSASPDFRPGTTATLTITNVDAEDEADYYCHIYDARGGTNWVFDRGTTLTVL    0.04

# input For the binder PGT-127 (antibody, V domains shown) VH: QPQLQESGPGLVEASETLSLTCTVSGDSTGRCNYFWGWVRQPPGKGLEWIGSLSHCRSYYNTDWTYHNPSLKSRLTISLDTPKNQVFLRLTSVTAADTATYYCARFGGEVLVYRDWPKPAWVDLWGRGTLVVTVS VL: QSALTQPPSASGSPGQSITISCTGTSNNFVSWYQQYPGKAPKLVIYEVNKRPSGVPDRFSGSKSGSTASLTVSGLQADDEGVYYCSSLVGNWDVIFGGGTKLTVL , what Median IC50 against viruses neutralized with an IC50 <50 µg/ml is on record?
# output 0.22

Reference source for all entries: patent US20200024330A1
